B1: LINE1-full (parent)
chain: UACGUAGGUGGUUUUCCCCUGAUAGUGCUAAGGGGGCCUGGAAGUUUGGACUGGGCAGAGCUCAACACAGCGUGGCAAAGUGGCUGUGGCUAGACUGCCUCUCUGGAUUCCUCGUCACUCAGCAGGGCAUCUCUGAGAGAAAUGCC

Variants of: B1
EXPERIMENTAL DETAILS: self-cleavage, relative activity (ratio to wild type); higher = more cleavage; in vitro, sequencing; the parent is a self-cleaving ribozyme
Short version: self-cleavage at least 0.4 is y, less is n.

query: Is self-cleavage at least 0.4? Consider `UACGUAGGUGGUUAUCCCCUGAUAGUGCUAAGGGGGCCUGGAAGUUUGGACUGGGCAGAGCUCAACACAGCGUGGCAAAGUGGCUGUGGCUAGACUGCCUCUCUGGAUUCCUCGUCACUCAGCAGGGCAUCUCUGAGAGAAAAGCC`
result: y

query: Is self-cleavage at least 0.4? Consider `UACGUAGGUGGUUUUCCCCUGAUAGUGCUAAGGGGGCCUGGAAGUUUGGACUGGGCAGAGCUCAACACAGCGUGGCAUAGUGGCUGUGGCUAGACUGCCUCUCUGGAUUCCUCGUCACUCAGCAGGGCAUCUCUGAGAGAAUUGCC`
result: y

query: Is self-cleavage at least 0.4? Consider `UACGUAGGUGGUUUUCCCCUGAUAGUGGUAAGGGGGCCUGGAAGUUUGGACUGGGCAGAGCUCAACACAGCGUGGCGAAGUGGCUGUGGCUAGACUGCCUCUCUGGAUUCCUCGUCACUCAGCAGGGCAUCUCUGAGAGAAAUGCC`
result: y

query: Is self-cleavage at least 0.4? Consider `UACGUAGGUGGUUUUCCCCUGAUAGUGCUAAGGGGGCCUGGAAGUUUGGACUGGGCAGAGCUCAACACAGCGUGGCAAAGUGGCUGUGGCUAGACUGCCUCUCUGGAUUCCUCGUCACUCAGCAGGGCUUCUCAGAGAGAAAUGCC`
result: y

query: Is self-cleavage at least 0.4? Consider `UACGUAGGUGGUUUUCCCCUGAUAGUGCUAAGGGGGCCUGGGAGUUUGGACUGGGCAGAGCUCAUCACAGCGUGGCAAAGUGGCUGUGGCUAGACUGCCUCUCUGGAUUCCUCGUCACUCAGCAGGGCAUCUCUGAGAGAAAUGCC`
result: n

query: Is self-cleavage at least 0.4? Consider `UACGUAGGUGGUUAUCCCCUGAUAGUGCUAAGGGGGCCUGGAAGUUUGGACUGGGCAGAGCUCAACACAGCGUGGCAAAGUGGCUGUGGCUAGACUGCCUCUCUGGACUCCUCGUCACUCAGCAGGGCAUCUCUGAGAGAAAUGCC`
result: y
